These data points were gathered from paper PMC3663763.

target: Mcl-1 (Homo sapiens, UniProt Q07820); construct: gene MCL1; assay: fluorescence polarization competition with FITC-Bak-BH3 peptide, […] Mcl-1 (IC50 […]); supported by co-IP in REN cells; type: binding
Sequence (Q07820 whole entry): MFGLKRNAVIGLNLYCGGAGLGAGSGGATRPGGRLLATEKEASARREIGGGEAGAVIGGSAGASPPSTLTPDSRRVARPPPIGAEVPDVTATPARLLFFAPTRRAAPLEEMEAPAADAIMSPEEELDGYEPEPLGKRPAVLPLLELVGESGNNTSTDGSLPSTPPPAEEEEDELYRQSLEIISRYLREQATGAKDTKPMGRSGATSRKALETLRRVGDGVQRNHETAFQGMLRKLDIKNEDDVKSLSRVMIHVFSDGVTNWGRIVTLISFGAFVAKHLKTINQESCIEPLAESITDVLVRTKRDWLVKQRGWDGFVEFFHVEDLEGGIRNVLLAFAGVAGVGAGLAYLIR
Attribute measured: pKi
Scale: negative log10 of molar concentration, which is what pKi denotes.

[in] State the recorded pKi for this entry: CC(C)Oc1cc(C(=O)Nc2ccc(C(=O)Nc3ccc(C(=O)O)cc3OC(C)C)nc2OC(C)C)ccc1N [JY-1-106]
[out] 5.75
